assay: Cmax in mouse at 1.5 mg/kg, ip by tandem HPLC-mass spectrometry; format: ADME, organism-based; design: dose 1.5 mg/kg, route intraperitoneal; conditions: in vivo
Metric: Cmax (ng/mL)
One number for each entry, in ng/mL.

Could you tell me which Cmax is on file for `CC(C)[C@H]1CC[C@@]2(CO2)[C@H]2C(=O)OCC(C(=O)O)=C[C@H]12` ?
249

---

tested on: NCI-H460; assay: Antiproliferative activity against human NCI-H460 cells assessed as inhibition of cell proliferation incubated for 72 hrs by conventional ATP quantification method; type: functional, cell-based; details: NCI-H460, 72 h
Metric: pIC50
One number for each entry, as −log10 of the molar value.

Compound	pIC50
CC(C)[C@H]1CC[C@@]2(CO2)[C@H]2C(=O)OCC(C(=O)O)=C[C@H]12	6.31

Next, consider the following compound.
I'd like to know its pIC50. The compound in question is COc1cccc2c1C(=O)c1c(O)c3c(c(O)c1C2=O)C[C@@](O)(C(=O)CO)C[C@@H]3O[C@H]1C[C@H](N)[C@H](O)[C@H](C)O1 [DOXORUBICIN]
7.70
